Tgt: human SSTR2 (Homo sapiens, UniProt P30874)
Construct: Myc
Sequence (P30874 whole entry): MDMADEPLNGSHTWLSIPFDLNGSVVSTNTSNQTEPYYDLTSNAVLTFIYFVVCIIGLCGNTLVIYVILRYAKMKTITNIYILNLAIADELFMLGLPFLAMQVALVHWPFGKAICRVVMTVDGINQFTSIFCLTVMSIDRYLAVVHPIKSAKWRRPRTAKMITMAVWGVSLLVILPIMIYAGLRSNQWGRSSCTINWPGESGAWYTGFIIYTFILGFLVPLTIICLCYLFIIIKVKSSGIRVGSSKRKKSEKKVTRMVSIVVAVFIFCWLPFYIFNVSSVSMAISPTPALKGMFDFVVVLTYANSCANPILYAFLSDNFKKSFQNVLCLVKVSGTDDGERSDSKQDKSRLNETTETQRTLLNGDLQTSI
Measurement protocol: Evaluation of SSTR2 agonistic activity using cells expressing human SSTR2 (suppression of forskolin-stimulated cAMP production, SSTR2-CHO-K1)
Experimental parameters: suppression of cAMP production by forskolin stimulation, 1000 nmol/L octreotide = 100%
Test readout: EC50 (nM)
One number for each entry, in nM.

Answered examples (2):
N[C@@H]1CCN(c2c(-c3cc(F)cc(F)c3)cncc2-c2nc3cc(F)c(F)cc3[nH]2)C[C@@H]1O : 0.015
Cn1cc(-c2ncc(-c3cc(F)cc(F)c3)c(N3CC[C@@H](N)[C@@H](O)C3)c2-c2nc3cc(F)c(F)cc3[nH]2)cn1 : 0.032

Please look at the following molecule next.
Q) Would you kindly share the measured EC50 for Cc1ncc(-c2cc(F)cc(F)c2)c(N2CC[C@@H](N)[C@@H](O)C2)c1-c1nc2cc(F)c(F)c(F)c2[nH]1 ?
A) 0.017

====

What EC50 was measured for each of the following?
Tgt: human SSTR2 (Homo sapiens, UniProt P30874)
Construct: Myc
Measurement protocol: Evaluation of SSTR2 agonistic activity using cells expressing human SSTR2 (suppression of forskolin-stimulated cAMP production, SSTR2-CHO-K1)
Experimental parameters: suppression of cAMP production by forskolin stimulation, 1000 nmol/L octreotide = 100%
Numbers only, in nM.

Below, 2 compounds whose answers are already recorded.
COc1cc(F)cc(-c2cncc(-c3nc4cc(F)c(F)cc4[nH]3)c2N2CC[C@@H](NCCC(F)(F)F)[C@@H](O)C2)c1 [Example 5(5)] : 0.42
COc1ccc2nc(-c3c(C)ncc(-c4cc(F)cc(Cl)c4)c3N3CC[C@@H](NC4COC4)[C@@H](O)C3)[nH]c2c1 [Example 3] : 0.027

Moving on to the next compound.
Q) API: value(readout= EC50, system= human SSTR2 (Homo sapiens, UniProt P30874), query= COC(=O)c1cc(F)cc2nc(-c3c(C)ncc(-c4cc(F)ccc4F)c3N3CC[C@@H](N)[C@@H](O)C3)[nH]c12 [Example 2(12)] )
A) 0.016

====

Field: inhibition in vivo at 1 mg/kg. Provide a value for each of the compounds that follow.
Test system: GH secretion
Measurement protocol: Evaluation of suppression of growth hormone (GH) secretion using rats (GHRH-induced)
Assay type: in vivo
Experimental parameters: Rattus norvegicus, 5 min, oral, dosage of 1 mg/kg, GHRH given 8 hours after dosing, blood GH 5 minutes after GHRH
Answers are plain numbers, in %.

COc1cc2nc(-c3cncc(-c4cc(F)cc(F)c4)c3N3CC[C@@H](NCCC(F)(F)F)[C@@H](O)C3)[nH]c2cc1F : 83
Cc1ncc(-c2cc(F)cc(F)c2)c(N2CC[C@@H](NCCC(F)(F)F)[C@@H](O)C2)c1-c1nc2cc(F)c(F)cc2[nH]1 : 85

Moving on to the next compound.
Q) Look up inhibition in vivo at 1 mg/kg: O[C@H]1CN(c2c(-c3cc(F)cc(F)c3)cncc2-c2nc3cc(F)c(F)cc3[nH]2)CC[C@H]1NC1COC1
A) 92

====

Tgt: hERG K+ channel (Homo sapiens)
Sequence (Q12809 whole entry): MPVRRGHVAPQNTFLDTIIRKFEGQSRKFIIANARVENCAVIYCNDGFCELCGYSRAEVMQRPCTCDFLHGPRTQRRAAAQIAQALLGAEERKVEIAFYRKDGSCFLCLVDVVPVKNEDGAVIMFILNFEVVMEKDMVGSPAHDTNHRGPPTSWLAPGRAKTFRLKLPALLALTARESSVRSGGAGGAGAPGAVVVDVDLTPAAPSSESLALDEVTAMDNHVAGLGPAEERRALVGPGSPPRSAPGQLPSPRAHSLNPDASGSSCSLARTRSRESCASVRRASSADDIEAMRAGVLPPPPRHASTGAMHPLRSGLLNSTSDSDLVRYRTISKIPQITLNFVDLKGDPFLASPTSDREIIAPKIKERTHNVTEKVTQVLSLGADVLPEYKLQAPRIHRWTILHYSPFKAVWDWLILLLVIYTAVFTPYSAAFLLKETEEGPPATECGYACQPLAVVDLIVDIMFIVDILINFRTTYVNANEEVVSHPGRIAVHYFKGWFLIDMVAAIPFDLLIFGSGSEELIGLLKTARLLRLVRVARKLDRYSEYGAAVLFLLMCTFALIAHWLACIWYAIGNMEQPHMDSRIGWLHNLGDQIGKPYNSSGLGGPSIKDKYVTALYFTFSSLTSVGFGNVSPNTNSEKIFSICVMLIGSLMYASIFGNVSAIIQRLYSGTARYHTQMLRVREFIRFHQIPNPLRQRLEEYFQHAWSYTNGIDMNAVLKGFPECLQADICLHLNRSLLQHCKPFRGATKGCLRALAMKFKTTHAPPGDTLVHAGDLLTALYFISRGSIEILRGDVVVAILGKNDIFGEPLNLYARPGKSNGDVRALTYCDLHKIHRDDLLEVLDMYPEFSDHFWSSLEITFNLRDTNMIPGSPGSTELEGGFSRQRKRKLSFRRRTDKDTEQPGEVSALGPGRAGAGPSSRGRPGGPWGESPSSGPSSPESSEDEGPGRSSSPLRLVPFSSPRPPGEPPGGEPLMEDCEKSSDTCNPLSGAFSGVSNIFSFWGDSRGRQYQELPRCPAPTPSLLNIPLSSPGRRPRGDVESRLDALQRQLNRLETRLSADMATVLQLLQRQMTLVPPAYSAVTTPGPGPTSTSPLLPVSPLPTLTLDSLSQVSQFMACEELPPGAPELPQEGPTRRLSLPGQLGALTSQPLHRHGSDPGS
Measurement protocol: Evaluation of hERG K+ channel inhibitory activity using cells expressing human ERG (automated patch-clamp, CHO-K1)
Experimental parameters: CHO-K1 cells with human ERG gene, tested at 1, 3 and 10 μmol/L, 5-minute incubation
Test readout: pIC50
Answers are plain numbers, as −log10 of the molar value.

Examples with answers:
CCN[C@@H]1CCN(c2c(-c3nc4cc(F)c(F)cc4[nH]3)cncc2-c2cc(F)ccc2F)C[C@@H]1O : 5.08
Cc1ncc(-c2cc(F)cc(Cl)c2)c(N2CC[C@@H](NC3COC3)[C@@H](O)C2)c1-c1nc2cc(F)c(F)cc2[nH]1 : 5.02

// for each compound below, give its pIC50
1. COC(=O)c1cc(F)cc2nc(-c3c(C)ncc(-c4cc(F)ccc4F)c3N3CC[C@@H](N)[C@@H](O)C3)[nH]c12
2. N[C@@H]1CCN(c2c(-c3cc(F)cc(F)c3)cncc2-c2nc3cc(F)c(F)cc3[nH]2)C[C@@H]1O
3. COC(=O)c1cc(F)cc2nc(-c3c(N4CCOCC4)ncc(-c4cc(F)cc(F)c4)c3N3CC[C@@H](N)[C@@H](O)C3)[nH]c12
4. CCN[C@@H]1CCN(c2c(-c3cc(F)cc(F)c3)cnc(C)c2-c2nc3cc(F)c(F)c(F)c3[nH]2)C[C@@H]1O

A)
1. 5.03
2. 5.16
3. 5.36
4. 5.24

Please look at the items below and tell me pIC50 for each one, in order.
1. COc1ccc2nc(-c3cncc(-c4cc(F)ccc4F)c3N3CC[C@@H](N)[C@@H](O)C3)[nH]c2c1
2. Cc1ncc(-c2cc(F)cc(F)c2)c(N2CC[C@@H](NCCC(F)(F)F)[C@@H](O)C2)c1-c1nc2cc(F)c(F)cc2[nH]1
3. COC(=O)c1cc(F)cc2nc(-c3c(C)ncc(-c4cc(F)cc(Cl)c4)c3N3CC[C@@H](N)[C@@H](O)C3)[nH]c12

A)
1. 5.04
2. 5.29
3. 5.28

====

Tgt: human SSTR2 (Homo sapiens, UniProt P30874)
Construct: Myc
Measurement protocol: Evaluation of SSTR2 agonistic activity using cells expressing human SSTR2 (suppression of forskolin-stimulated cAMP production, SSTR2-CHO-K1)
Experimental parameters: suppression of cAMP production by forskolin stimulation, 1000 nmol/L octreotide = 100%
Sorting guide: entries reporting EC50 beneath 300 pM go in the TRUE pile, the rest go in the FALSE pile.

Known results for molecules:
O[C@H]1CN(c2c(-c3cc(F)cc(Cl)c3)cncc2-c2nc3cc(F)c(F)cc3[nH]2)CC[C@H]1NCCC(F)(F)F : TRUE
Cc1ncc(-c2cc(F)cc(Cl)c2)c(N2CC[C@@H](NC3COC3)[C@@H](O)C2)c1-c1nc2cc(F)c(F)cc2[nH]1 : TRUE

Q) Problem: For the molecule Cc1ncc(-c2cc(F)cc(F)c2)c(N2CC[C@@H](NCCC(F)(F)F)[C@@H](O)C2)c1-c1nc2cc(F)c(F)cc2[nH]1 , is EC50 under 300 pM?
A) FALSE

Q) State whether 300 pM exceeds EC50 recorded for CCN[C@@H]1CCN(c2c(-c3cc(F)cc(F)c3)cnc(C)c2-c2nc3cc(F)c(F)c(F)c3[nH]2)C[C@@H]1O .
A) FALSE

Q) Identify whether the molecule CCN[C@@H]1CCN(c2c(-c3nc4cc(F)c(F)cc4[nH]3)cncc2-c2cc(F)ccc2F)C[C@@H]1O records EC50 below 300 pM.
A) TRUE

Q) Answer whether the molecule COC(=O)c1cc(F)cc2nc(-c3c(N4CCOCC4)ncc(-c4cc(F)cc(F)c4)c3N3CC[C@@H](N)[C@@H](O)C3)[nH]c12 has EC50 strictly less than 300 pM
A) TRUE

====

I'd be grateful if you could share measured IC50 for these entries.
Tgt: hERG K+ channel (Homo sapiens)
Construct: expressed in transfected cells; host or cells: CHO-K1
Measurement protocol: Evaluation of hERG K+ channel inhibitory activity using cells expressing human ERG (automated patch-clamp, CHO-K1)
Assay type: cell-based
Experimental parameters: CHO-K1 cells with human ERG gene, tested at 1, 3 and 10 μmol/L, 5-minute incubation
Method: Evaluation of hERG K^+ Channel Inhibitory Activity Using Cells Expressing Human ERG CHO-K1 cells having the human ERG gene (ether-a-go-go related gene) introduced therein were subcultured in an F-12 medium [F-12 Nutrient Mixture (HAM)] containing 10% inactivated foetal bovine serum, 100 IU/mL penicillin-100 μg/mL streptomycin and 200 μg/mL geneticin. […]
Give bare numbers, in µM.

N[C@@H]1CCN(c2c(-c3cc(F)cc(F)c3)cncc2-c2nc3ccccc3[nH]2)C[C@@H]1O : 6.7
O[C@H]1CN(c2c(-c3cc(F)cc(F)c3)cncc2-c2nc3cc(F)c(F)cc3[nH]2)CC[C@H]1NC1COC1 : 7.6

Q) Under hERG K+ channel (Homo sapiens): IC50 value of COC(=O)c1cc(F)cc2nc(-c3cncc(-c4cc(F)ccc4F)c3N3CC[C@@H](N)[C@@H](O)C3)[nH]c12 ?
A) 3.9

====

Tgt: human SSTR2 (Homo sapiens, UniProt P30874)
Construct: Myc
Measurement protocol: Evaluation of SSTR2 agonistic activity using cells expressing human SSTR2 (suppression of forskolin-stimulated cAMP production, SSTR2-CHO-K1)
Experimental parameters: suppression of cAMP production by forskolin stimulation, 1000 nmol/L octreotide = 100%
I'd be grateful if you could share measured pEC50 for these entries.
Numbers only, as −log10 of the molar value.

// worked examples, pEC50 included
CCN[C@@H]1CCN(c2c(-c3cc(F)cc(F)c3)cnc(C)c2-c2nc3cc(F)c(OC)cc3[nH]2)C[C@@H]1O : 10.25
O[C@H]1CN(c2c(-c3cc(F)cc(F)c3)cncc2-c2nc3cc(F)c(F)cc3[nH]2)CC[C@H]1NC1COC1 : 9.85
COC(=O)c1cc(F)cc2nc(-c3c(C)ncc(-c4cc(F)cc(Cl)c4)c3N3CC[C@@H](N)[C@@H](O)C3)[nH]c12 : 10.72

Batch request: pEC50 for each of the following compounds.
1. COc1cc2nc(-c3cncc(-c4cc(F)cc(F)c4)c3N3CC[C@@H](NCCC(F)(F)F)[C@@H](O)C3)[nH]c2cc1F
2. COc1ccc2nc(-c3cncc(-c4cc(F)ccc4F)c3N3CC[C@@H](N)[C@@H](O)C3)[nH]c2c1
3. COC(=O)c1cc(F)cc2nc(-c3cncc(-c4cc(F)ccc4F)c3N3CC[C@@H](N)[C@@H](O)C3)[nH]c12
4. N[C@@H]1CCN(c2c(-c3cc(F)cc(F)c3)cncc2-c2nc3ccccc3[nH]2)C[C@@H]1O

A)
10.17
10.92
11.30
11.03
